Listing: inhibition of selected molecules
molecular target: PAS domain-containing serine/threonine-protein kinase (Homo sapiens) (UniProt Q96RG2); details: at 0.1 µM
Sequence (Q96RG2 whole entry, the tested form may be a part): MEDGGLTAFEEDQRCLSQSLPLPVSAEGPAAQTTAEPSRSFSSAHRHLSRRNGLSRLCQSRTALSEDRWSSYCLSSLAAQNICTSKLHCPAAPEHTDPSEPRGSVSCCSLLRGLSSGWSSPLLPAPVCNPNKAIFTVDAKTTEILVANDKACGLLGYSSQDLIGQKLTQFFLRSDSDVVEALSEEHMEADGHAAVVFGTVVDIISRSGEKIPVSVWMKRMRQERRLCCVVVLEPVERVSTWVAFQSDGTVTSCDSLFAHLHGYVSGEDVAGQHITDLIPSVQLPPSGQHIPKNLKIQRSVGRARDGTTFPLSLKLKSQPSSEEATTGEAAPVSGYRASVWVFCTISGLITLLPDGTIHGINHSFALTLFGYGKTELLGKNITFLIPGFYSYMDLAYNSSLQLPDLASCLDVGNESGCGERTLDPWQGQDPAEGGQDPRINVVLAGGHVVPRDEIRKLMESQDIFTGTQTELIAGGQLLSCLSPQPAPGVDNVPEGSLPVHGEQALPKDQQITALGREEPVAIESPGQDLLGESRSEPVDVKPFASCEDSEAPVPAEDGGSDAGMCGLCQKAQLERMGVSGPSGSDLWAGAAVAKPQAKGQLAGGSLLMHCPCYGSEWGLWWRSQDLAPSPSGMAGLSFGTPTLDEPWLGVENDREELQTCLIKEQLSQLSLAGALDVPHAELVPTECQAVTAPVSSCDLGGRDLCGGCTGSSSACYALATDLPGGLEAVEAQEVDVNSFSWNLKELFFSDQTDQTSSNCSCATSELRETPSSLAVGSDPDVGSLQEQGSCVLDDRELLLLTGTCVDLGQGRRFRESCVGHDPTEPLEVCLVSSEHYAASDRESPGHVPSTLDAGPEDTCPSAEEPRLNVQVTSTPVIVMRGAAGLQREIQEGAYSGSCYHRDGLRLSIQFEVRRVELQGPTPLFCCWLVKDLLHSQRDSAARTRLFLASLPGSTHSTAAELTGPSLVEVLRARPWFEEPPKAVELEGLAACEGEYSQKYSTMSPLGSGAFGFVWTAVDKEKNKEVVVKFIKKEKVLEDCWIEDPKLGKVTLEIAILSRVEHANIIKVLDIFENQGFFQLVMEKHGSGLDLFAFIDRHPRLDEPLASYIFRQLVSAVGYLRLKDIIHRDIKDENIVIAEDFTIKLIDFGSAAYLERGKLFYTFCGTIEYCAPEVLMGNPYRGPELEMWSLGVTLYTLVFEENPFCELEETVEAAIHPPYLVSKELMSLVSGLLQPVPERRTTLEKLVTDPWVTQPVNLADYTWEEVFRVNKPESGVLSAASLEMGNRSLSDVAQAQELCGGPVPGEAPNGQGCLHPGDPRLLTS
Description: GSK_PKIS: PASK mean inhibition at 0.1 uM [Nanosyn]
# value in %; strip the unit string

Worked cases, answers included:
O=C1NC(=O)C(c2cccc(Cl)c2)=C1Nc1ccc(Cl)c(C(=O)O)c1
0.25
Cc1ccc(C(=O)NC(C)C)cc1-c1ccc(C(=O)NCC2CC2)cc1
0.53
COc1cc(Nc2ncc(-c3ccccc3)o2)cc(OC)c1OC
0.63
COc1ccc2cc(-c3c(-c4ccncc4)nc(-c4ccc([S+](C)[O-])cc4C)n3C)ccc2c1 (stereo not given)
-0.31

-- ask Answer with the recorded inhibition for the molecule listed here: "CCS(=O)(=O)c1ccc(OC)c(Nc2ncc(-c3cccc(-c4ccccc4F)c3)o2)c1"
-- reply -0.22

###

Target: Ephrin type-A receptor 3 (Homo sapiens) (UniProt P29320);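 note: mean inhibition value reported from the GSK PKIS kinase profiling screen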
Sequence (whole entry): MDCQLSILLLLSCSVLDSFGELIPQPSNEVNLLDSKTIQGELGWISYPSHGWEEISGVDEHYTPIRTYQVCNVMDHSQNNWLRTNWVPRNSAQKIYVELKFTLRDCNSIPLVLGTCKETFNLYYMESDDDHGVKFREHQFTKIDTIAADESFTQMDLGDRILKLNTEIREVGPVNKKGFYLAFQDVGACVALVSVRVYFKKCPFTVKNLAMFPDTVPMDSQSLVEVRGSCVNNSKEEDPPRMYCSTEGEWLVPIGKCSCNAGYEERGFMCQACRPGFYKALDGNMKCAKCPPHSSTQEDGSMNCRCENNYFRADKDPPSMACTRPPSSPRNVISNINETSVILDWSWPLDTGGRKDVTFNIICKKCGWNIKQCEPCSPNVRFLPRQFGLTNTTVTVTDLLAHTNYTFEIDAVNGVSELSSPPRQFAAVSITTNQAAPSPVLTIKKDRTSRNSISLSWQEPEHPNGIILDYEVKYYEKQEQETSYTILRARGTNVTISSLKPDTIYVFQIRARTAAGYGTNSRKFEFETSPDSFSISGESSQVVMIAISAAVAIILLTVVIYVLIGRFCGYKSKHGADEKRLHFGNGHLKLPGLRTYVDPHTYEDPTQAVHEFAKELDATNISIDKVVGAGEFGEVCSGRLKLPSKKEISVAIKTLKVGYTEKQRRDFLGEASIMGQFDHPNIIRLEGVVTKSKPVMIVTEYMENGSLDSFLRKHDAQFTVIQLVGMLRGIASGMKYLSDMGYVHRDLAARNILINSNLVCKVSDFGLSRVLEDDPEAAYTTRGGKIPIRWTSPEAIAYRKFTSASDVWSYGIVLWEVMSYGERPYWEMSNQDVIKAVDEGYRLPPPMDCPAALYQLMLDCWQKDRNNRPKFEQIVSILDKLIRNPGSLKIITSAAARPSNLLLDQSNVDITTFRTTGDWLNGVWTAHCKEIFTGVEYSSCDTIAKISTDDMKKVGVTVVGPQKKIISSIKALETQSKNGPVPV
Conditions: at 1 µM
Listing: inhibition of selected compounds
# value in %; strip the unit string

COc1cc2ncn(-c3cc(OCc4cccs4)c(C(N)=O)s3)c2cc1OC
0.85
O=C(Nc1ccc(Oc2ccc3[nH]c(NC(=O)c4ccccc4)nc3c2)cc1)Nc1cc(C(F)(F)F)ccc1F
8.94
CN(C)CCCNc1nccc(-c2c(-c3ccc(F)cc3)nn3cc(C(F)(F)F)ccc23)n1
1.47
COc1cc(C)c(N(C)C(=O)CN(C)C)cc1Nc1nc(Nc2cccc(F)c2C(N)=O)c2cc[nH]c2n1
-3.2

-- ask Answer with the recorded inhibition for the compound listed here: "CN(C)c1ccc2c(c1)/C(=C/Nc1ccc(S(N)(=O)=O)cc1)C(=O)N2"
-- reply 3.13

-- ask Answer with the recorded inhibition for the compound listed here: "NS(=O)(=O)c1ccc(N/N=C2\C(=O)Nc3ccc(C(=O)NCCCn4ccnc4)cc32)cc1"
-- reply 4.65

-- ask Answer with the recorded inhibition for the compound listed here: "O=C1Nc2ccc(I)cc2C1=Cc1cc(Br)c(O)c(Br)c1"
-- reply 4.64

-- ask Answer with the recorded inhibition for the compound listed here: "CS(=O)(=O)CCNCc1ccc(-c2ccc3ncnc(Nc4ccc(OCc5ccccc5)c(Br)c4)c3c2)o1"
-- reply 1.45

-- ask Answer with the recorded inhibition for the compound listed here: "COc1cc(Nc2ncc3c(C)nc(-c4cccc(Oc5ccccc5)c4)n3n2)cc(OC)c1OC"
-- reply 1.56

-- ask Answer with the recorded inhibition for the compound listed here: "Fc1ccc(-c2c(-c3ccncc3)nc3n2CCS3)cc1"
-- reply 0.35

-- ask Answer with the recorded inhibition for the compound listed here: "CCc1nccc2c1nc(-c1nonc1N)n2CC"
-- reply 1.46

-- ask Answer with the recorded inhibition for the compound listed here: "NC(=O)Cc1ccccc1Oc1nccc(-c2c(-c3ccc(F)cc3)ncn2C2CCNCC2)n1"
-- reply 3.17

-- ask Answer with the recorded inhibition for the compound listed here: "COc1ccc(C2=C(N3CCc4ccccc43)C(=O)NC2=O)cc1"
-- reply 5.91

-- ask Answer with the recorded inhibition for the compound listed here: "C[C@@H](Oc1cc(-n2cnc3ccc(OCC4CCN(C)CC4)cc32)sc1C(N)=O)c1ccccc1Cl"
-- reply 4.27

-- ask Answer with the recorded inhibition for the compound listed here: "NS(=O)(=O)c1ccc(N/N=C2\C(=O)Nc3ccc(-c4cnco4)cc32)cc1"
-- reply 0.23

-- ask Answer with the recorded inhibition for the compound listed here: "O=C(NCC1CC1)c1ccc(-c2cccc(C(=O)NC3CC3)c2)cc1"
-- reply 4.67

-- ask Answer with the recorded inhibition for the compound listed here: "Fc1ccc(-c2ncn(C3CCNCC3)c2-c2ccnc(Oc3ccc4c(c3)OCO4)n2)cc1"
-- reply 10.3

-- ask Answer with the recorded inhibition for the compound listed here: "CN1CCN(CCCNc2nc3ccc(Oc4ccc(NC(=O)Nc5cc(C(F)(F)F)ccc5F)cc4)cc3[nH]2)CC1"
-- reply -0.47

-- ask Answer with the recorded inhibition for the compound listed here: "CCN(CC)Cc1ccc(Nc2nccc(-c3cnn4ncccc34)n2)cc1"
-- reply 0.69

-- ask Answer with the recorded inhibition for the compound listed here: "NC(=O)c1ccc(Oc2nccc(-c3c(-c4ccc(F)cc4)ncn3C3CCNCC3)n2)cc1"
-- reply 5.3

-- ask Answer with the recorded inhibition for the compound listed here: "CCc1cccc(CC)c1/C=C/c1cncc(C(=O)NC)c1"
-- reply 2.85

-- ask Answer with the recorded inhibition for the compound listed here: "COc1ccc2cc(-c3c(-c4ccncc4)nc(-c4ccc(S(C)(=O)=O)cc4C)n3C)ccc2c1"
-- reply 3.83

Numbers sourced from ChEMBL document CHEMBL1961873.
